Tested on: MCF-7 cells
Test: cells
Type: cell-based, human
Conditions: Homo sapiens; mock vector transfected MCF7 cells; 72 hours post transfection; read-out: EC50, Control
pEC50: −log10 of the molar value.
Tick TRUE if pEC50 is 8 or greater. Tick FALSE if pEC50 is less than 8.

Solved entries:
| compound | study.target | category |
| --- | --- | --- |
| CC(=O)O[C@@]12CO[C@@H]1C[C@H](O)[C@@]1(C)C(=O)[C@H](O)C3=C(C)[C@@H](OC(=O)[C@H](O)[C@@H](NC(=O)OC(C)(C)C)c4ccccc4)C[C@@](O)([C@@H](OC(=O)c4ccccc4)[C@H]21)C3(C)C | MCF-7 cells | TRUE |
| CC[C@]1(O)C[C@@H]2CN(CCc3c([nH]c4ccccc34)[C@@](C(=O)OC)(c3cc4c(cc3OC)N(C)[C@H]3[C@@](O)(C(=O)OC)[C@H](OC(C)=O)[C@]5(CC)C=CCN6CC[C@]43[C@@H]65)C2)C1 | MCF-7 cells | TRUE |
| CC[C@]1(O)C[C@H]2CN(CCc3c([nH]c4ccccc34)[C@@](C(=O)OC)(c3cc4c(cc3OC)N(C=O)[C@H]3[C@@](O)(C(=O)OC)[C@H](OC(C)=O)[C@]5(CC)C=CCN6CC[C@]43[C@@H]65)C2)C1 | MCF-7 cells | TRUE |
| COc1cc([C@@H]2c3cc4c(cc3[C@@H](O[C@@H]3O[C@@H]5CO[C@@H](C)O[C@H]5[C@H](O)[C@H]3O)[C@H]3COC(=O)[C@H]23)OCO4)cc(OC)c1O [Etoposide] | MCF-7 cells | FALSE |

Consider the record given below.
Test whether the compound COc1cccc2c1C(=O)c1c(O)c3c(c(O)c1C2=O)C[C@@](O)(C(=O)CO)C[C@@H]3O[C@H]1C[C@H](N)[C@H](O)[C@H](C)O1 records pEC50 of 8 or higher.
FALSE
